target: Muscarinic acetylcholine receptor M4 (Homo sapiens); assay: compounds altering M4/GIRK thallium flux, either direction, primary screen, M4 allosteric agonist project, cell-based, HEK293 M4/GIRK, BTC-AM (AID 625); conditions: at 10 µM, actives lie on both sides;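 further: thallium influx through GIRK channels coupled to M4 in HEK293 cells with BTC-AM dye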
Quantity: fluorescence slope
Please reply with the number alone, leaving off any unit.

Field: example entries. Status: answers known.
CCN(CC)CCCN1C(=O)C(=O)/C(=C(/O)c2ccc3c(c2)CC(C)O3)C1c1cccnc1 (configuration not stated); 0.00627
C#CC1CN(Cc2ccccc2)CC(C#C)N1C (configuration not stated); 0.00453

Kindly state the measured fluorescence slope obtained for CCCCCCOc1ccc(C(=O)n2cnc(N)n2)cc1 with Muscarinic acetylcholine receptor M4 (Homo sapiens).
0.00638

Also, CC(=O)C1=C(O)C(=O)N(c2ccc(Br)cn2)C1c1ccccc1F (configuration not stated) please.
0.00688

What do you have for CC(C)c1nc(NCCN2CCOCC2)c(C#N)c2c1COC(C)(C)C2 ?
0.00407

###

assay: inhibitors of TNFa-induced NFkB p65 translocation, primary screen, imaging, HUVEC, MLSMR starter and 10KST1 sets (AID 438); details: HUVEC TNFa-induced p65 nuclear translocation; measured here: nuclei count (cytotoxicity indicator), at 2.08 µM;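 further: compound added about 3h40 before a 20 min TNFalpha stimulation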
Recorded cell count for the following compounds
// no unit string in output, number only

Nc1ccc2oc(-c3cc(Br)ccc3Cl)nc2c1; 569
CCCn1nc(CC(=O)O)c2ccccc2c1=O; 468
O=C(Cc1cccs1)NCc1ccc(F)cc1; 458

Now look at this entry.
Reported cell count, compound COc1ccc(C(=O)Oc2c(CN3CCOCC3)cc(Cl)c3cccnc23)cc1OC : ____
601

###

assay: inhibitors of E-selectin induction by TNFa, primary screen, imaging, HUVEC, immunofluorescence, MLSMR starter and 10KST1 sets (AID 487); details: HUVEC TNFalpha-induced E-selectin immunofluorescence imaging, at 2 µM; stronger effect = higher value;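 on inhibition: signal is fraction of cell area covered by stained E-selectin grains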
Quantity: inhibition (%)
Express your answer in %, writing the number without its unit.

Some solved cases for reference:
CC12CN3CC(C)(CN(C1)C3c1ccc(Cl)cc1Cl)C2O (configuration not stated); -90.6
O=C(c1cnccn1)N(c1ccccc1)C1(C(=O)NC2CCCC2)CCCCC1; -31.9
CCCC1CC(=O)OC1(C)C(=O)CSc1n[nH]c(-c2ccccc2)n1 (configuration not stated); -35.6
Cn1c(=O)c2c(ncn2CC(=O)OCC(=O)NC2CCCc3ccccc32)n(C)c1=O (configuration not stated); -85.1
O=c1c2cc(N3CCOCC3)ccc2[nH]c(=S)n1CCCN1CCCC1; -35

Using the record for CC1(C)OC(=O)C(=CNC(CCC(N)=O)C(=O)O)C(=O)O1 (configuration not stated) , report its inhibition.
-16.8

Please answer likewise for COc1cc(S(=O)(=O)N(C)C)ccc1F
-114

What do you get for CCOc1ccccc1C1C(C(=O)Nc2ccc(OC)cc2)=C(C)Nc2nc(CCCO)nn21 (configuration not stated) ?
-35.4

Also need CCCC(=O)Nc1ccccc1-c1nnn(CC(=O)Nc2ccc(OC)cc2)n1 , thanks.
-36.7

Now the same for O=C(COc1cccc(Oc2ccccc2)c1)Nc1ncccn1
-25.1

Same question for Fc1ccc(-n2c(Cc3ccccc3)nnc2SCc2nc(-c3cccs3)no2)cc1 please.
-52.5

Also N#CC1=C(SCC(=O)c2cc3ccccc3oc2=O)NC(=O)C(C#N)C12CCCC2 (configuration not stated) , if possible.
-47.7

Try the molecule O=C(Nc1ccccc1C(F)(F)F)c1cc(S(=O)(=O)N2CCOCC2)ccc1F
-247

Another molecule to check: O=C(c1cccnc1)N1CCc2ccccc21
24.6

Next up: COc1ccc(C2C(C(=O)Nc3cccnc3)=C(C)Nc3nc(-c4cccs4)nn32)cc1OC (configuration not stated)
3.4

What do you have for c1ccc2c(c1)[nH]c1c(N3CCN(C4CCCCC4)CC3)ncnc12 ?
-59.2

###

test: inhibitors of TNFa-induced NFkB p65 translocation, primary screen, imaging, HUVEC, MLSMR starter and 10KST1 sets (AID 438); details: HUVEC TNFa-induced p65 nuclear translocation; measured here: nuclei count (cytotoxicity indicator), at 2.08 µM;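 further: compound added about 3h40 before a 20 min TNFalpha stimulation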
Quantity: cell count
Please give the numeric answer without any surrounding text.

CCCCCSc1nc(C)c(CC(=O)O)c(=O)[nH]1; 400
O=C(Nc1cccc2ccccc12)c1cnccn1; 419
COC(=O)C1=C(C)OC(N)=C(C#N)C1c1c(C)nn(-c2ccccc2)c1Cl (configuration not stated); 798

Need cell count of COc1ccc(OCCN2C(=O)NC(C)(c3ccc(C)cc3)C2=O)cc1 (configuration not stated) , thanks.
391

Repeat for the following molecule: COCCNC(=O)c1cc(-c2cccs2)on1
793

Here is the next molecule: O=C(NCCc1c[nH]c2ccccc12)c1ccc(S(=O)(=O)NCc2ccco2)cc1
398

And what about the molecule Cc1cccc(N2CCN(C(=O)c3cc4ccccc4oc3=O)CC2)c1C ?
712

Another: COc1cccc(NC(=O)C2CC(=O)n3cnnc3S2)c1 (configuration not stated)
518

Same read-out for Nc1nnnn1NCc1cccc(OCc2ccccc2)c1 ?
582

Field entry: COc1ccc(CCNC(=O)C2CC(=O)N(c3ccccc3)C2)cc1OC (configuration not stated)
336

###

experiment: inhibitors of mutant huntingtin aggregation, primary screen, imaging, exon1htt(103Q)mCFP cells, high-content imaging (AID 483); settings: exon1htt(103Q)mCFP cell line, aggregate imaging, at 2 µM; measured here: cell count, toxicity;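 further: compound exposure lasted 3 days before fixation; percent of the per-plate median nuclei count of sample wells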
Quantity: nuclei count (%)
// units = %; emit number, no label

# annotated cases, reported nuclei count shown
CC(C)C(c1nnnn1C1CCCC1)N1CCCc2ccccc21 (stereo unspecified); 95.4
CCOC(=O)c1ccc(N2C(=O)CC(N(C)CCc3ccc(OC)c(OC)c3)C2=O)cc1 (stereo unspecified); 94.2

Name the reported nuclei count value associated with the compound O=C(c1cccc(F)c1)N1CCc2ccccc21
107

// query: O=C(NCCCNC(=O)c1ccccn1)c1ccccn1
97.9

Another: CCCCc1c(O)nc(N2CCN(Cc3ccccc3)CC2)[nH]c1=O
97.1

Follow-up item: COc1ccc2c(c1)cc(C(=O)O)n2C
77.6

Can you handle COc1cccc(-c2cc(C(F)(F)F)n3ncc(C(=O)O)c3n2)c1 next?
94.7

Try the compound CN(C)c1ccc(NC(=O)c2cc3c(=O)n4ccccc4nc3n2C)cc1
89

Same lookup for Cc1nn(CC(O)Cn2c3c(c4ccccc42)CCN(C)C3=O)c(C)c1Br (stereo unspecified) , please.
101

And then CCOC(=O)c1ccc(Oc2nc(SC)nc(N(C)C)n2)cc1 , what is it?
110

Moving on to Cc1nc2cc(Cl)ccc2n1CCO
104

###

Entries and their measured NADPH fluorescence slope follow.
biological target: Voltage-gated potassium channel subunit beta-2 (Rattus norvegicus) (UniProt P62483); test: KvBeta positive modulators, primary screen, biochemical, NADPH fluorescence (AID 623); conditions: Recombinant KvBeta, NADPH fluorescence decrease slope, 10 min; at 10 µM; stronger effect = lower value;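 further: fluorescence intensity change per second fitted from 20 to 320 s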
Sequence (P62483 whole entry, looked up): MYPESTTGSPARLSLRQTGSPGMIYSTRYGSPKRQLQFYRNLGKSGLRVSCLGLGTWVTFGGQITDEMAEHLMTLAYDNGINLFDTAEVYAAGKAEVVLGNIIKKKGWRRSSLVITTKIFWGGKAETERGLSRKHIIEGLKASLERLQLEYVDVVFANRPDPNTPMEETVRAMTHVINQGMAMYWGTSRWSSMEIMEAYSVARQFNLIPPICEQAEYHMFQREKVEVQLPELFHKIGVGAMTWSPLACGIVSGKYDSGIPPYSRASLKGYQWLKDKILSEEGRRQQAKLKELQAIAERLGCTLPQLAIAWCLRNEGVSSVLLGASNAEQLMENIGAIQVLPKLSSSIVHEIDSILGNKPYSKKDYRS
Answer with the value's number alone.

Solved cases (5 shown):
O=C1CC(c2ccco2)CC(O)=C1C=NCCN1CCN(C2CC(=O)N(c3ccccc3)C2=O)CC1 (stereo unspecified); -6e-05
CCOC(=O)c1c(C)n(C)c2ccc(O)c(CN3CCCCC3)c12; -3.9e-05
CNC(=O)c1nnn(Cc2ccccc2)c1NC(C)=O; 4e-05
Clc1ccc(-n2nnnc2Sc2ncnc3sccc23)cc1; -4.1e-05
CC1CCc2nn(CC(=O)NCCN3CCCCC3C)cc2C1 (stereo unspecified); 6.4e-06

Would you kindly share the measured NADPH fluorescence slope for COc1cc(C2CC(=O)NC3=C2C(=O)CC(C)(C)C3)ccc1O (stereo unspecified) ?
-4.2e-05

###

assay: inhibitors of poly I:C-induced TLR3 signaling, primary screen, cell-based, poly I:C stimulus, luciferase, 10K MLSCN set (AID 602277); conditions: HEK293-TLR3 RL24 IRF3 luciferase reporter, at 10 µM, stronger effect = higher value
Each entry below lists one item and its recorded inhibition value.
State the answer as a number, implicitly in %.

COc1ccccc1NC(=O)C1=C(C)Nc2nc(CCCO)nn2C1c1cccnc1 (stereo not drawn); 5.25
O=C(C1CCCCC1)N1CCC(c2nc3c(nnn3Cc3ccccc3Cl)c(=O)[nH]2)CC1; 26.2

Attention now turns to another entry.
inhibition lookup needed for CCOCCCNC(=O)C(c1ccc(C)cc1)N(Cc1ccc2c(c1)OCO2)C(=O)c1cnccn1 (stereo not drawn) , thanks.
17

###

# nuclei count per entry
assay: inhibitors of E-selectin induction by TNFa, primary screen, imaging, HUVEC, immunofluorescence, MLSMR starter and 10KST1 sets (AID 487); conditions: HUVEC TNFalpha-induced E-selectin immunofluorescence imaging, at 2 µM; measured here: cell number, toxicity;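 on nuclei count: 100% = median nuclei count of all wells on the same plate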
Just the number in %, nothing appended.

Known results for molecules:
O=C1CC(c2ccc(F)c(Br)c2)C2=C(CCCC2=O)N1 (stereo unspecified); 108
CCOC(=O)c1oc2ccccc2c1NC(=O)COC; 59.1
Cc1cc(=O)oc2c1c(C)nn2-c1ccc(C(=O)OC(C)C)cc1; 106
CCCC(=O)N(c1ccc2oc(=O)sc2c1)S(=O)(=O)c1ccccc1; 80
O=c1oc2c(CN3CCCCC3)c(O)ccc2c2c1CCCCC2; 168

Need nuclei count, item CCCNS(=O)(=O)c1ccc(C(=O)NCC2CCCO2)cc1 (stereo unspecified)
114

Lookup Nc1nnnn1NCc1cccc(OCc2ccccc2)c1
137

Item: Cc1ccnc(SCCn2c(N3CCN(Cc4ccccc4)CC3)nc3c2c(=O)[nH]c(=O)n3C)n1
96.2

What about this molecule? CCOC(=O)Nc1cc(OC)c(OC)cc1Cc1nccc2cc(OC)c(OC)cc12
173

Here is the next molecule: O=C(NCCC1=CCCCC1)c1ccc(=O)oc1
163

CCOc1ccc2nc(NC(NC(C)=O)(C(=O)OC)C(F)(F)F)sc2c1 (stereo unspecified) , same question.
119

Another molecule to check: COc1ccc(OCC(=O)N2CCN(C(=O)COc3ccc(Br)cc3)CC2)cc1
103

Item: CCS(=O)(=O)N1CCC(C(=O)NC2CCCCCCC2)CC1
128

Would you mind doing CCOc1ncccc1C(=O)Nc1ccc(Cl)cc1 as well?
105

Next molecule up: CCOC(=O)c1cnn2c1[nH]c(=O)c1ccccc12
165

Next record, please: CC1CCCCC1NC(=O)Cn1nnc(-c2ccc(Cl)cc2)n1 (stereo unspecified)
99.4
